- Tested on: NCI-H522
- assay.explanation: NCI tumour cell line growth inhibition, 48 h
Calls of active or inactive are those of the source. Cut-off read from the data, not from the text of the source: active = GI50 up to about 1.1 µM and inactive = higher.
Select the matching outcome among TRUE for active, FALSE for inactive

O=c1/c(=C/c2ccccc2[N+](=O)[O-])sc2nc3ccccc3n12
FALSE

Inquiry: Record request — test call for NC(=O)N/N=C1/CCC(O)CC1CC(=O)O (configuration not stated)
Reply text: FALSE

Inquiry: Record request — test call for Cc1c([C@H](C)[C@@H]2NC[C@@H](C)C[C@H]2O)ccc2c1C[C@H]1[C@H]2CC=C2C[C@@H](O)CC[C@@]21C
Reply text: FALSE

Inquiry: Record request — test call for CC1(C)CC(=O)C(/C(=N/NC(=S)NN)C(=O)Nc2nc3ccc([N+](=O)[O-])cc3s2)C(=O)C1
Reply text: FALSE

Inquiry: Record request — test call for COC(=O)[C@]1(C)CCC[C@]2(C)[C@@H](CCC(=O)C(C)C)[C@]3(C=O)O[C@@H]3C[C@H]21
Reply text: FALSE

Inquiry: Record request — test call for CC1(C)N=C(N)N=C(N)N1c1cccc(CSc2ccccc2)c1
Reply text: TRUE

Inquiry: Record request — test call for CCc1c(Cl)c(C)cc(O)c1Cl
Reply text: FALSE

Inquiry: Record request — test call for CSC1=NS(=O)(=O)c2cc(C(=O)NN(C)C(=O)c3cc4c(cc3Cl)SC(SC)=NS4(=O)=O)c(Cl)cc2S1
Reply text: FALSE

Inquiry: Record request — test call for COC(=O)C1=C(O)C(C(=O)OC)C2CC(=O)CC1C2(C)C (configuration not stated)
Reply text: FALSE

* * *

- Tested on: NCI-H23
- assay.explanation: NCI tumour cell line growth inhibition, 48 h
Active and inactive are the calls of the source. Cut-off read from the data, not from the text of the source: active = GI50 up to about 1.1 µM and inactive = higher.
experimental.endpoint: GI50

Inquiry: I'd like to know its GI50. The compound in question is CN(C)/C=C/c1nnc([N+](=O)[O-])s1
Reply text: 19.3 µM (inactive)

Inquiry: I'd like to know its GI50. The compound in question is CCc1cc2c(O)c(c1)Cc1cc(CC)cc(c1O)Cc1cc(CC)cc(c1O)Cc1cc(CC)cc(c1O)Cc1cc(CC)cc(c1O)Cc1cc(CC)cc(c1O)Cc1cc(CC)cc(c1O)C2
Reply text: > 100 µM (inactive)

Inquiry: I'd like to know its GI50. The compound in question is CN/N=C(/Cc1occc(=O)c1O)C(=O)Nc1ccc(C)c(C)c1
Reply text: > 100 µM (inactive)

* * *

- Test system: HCC 2998
- assay.explanation: NCI tumour cell line growth inhibition, 48 h
The source made the active and inactive calls. Cut-off read from the data, not from the text of the source: active = GI50 up to about 1.1 µM and inactive = higher.
Select the matching outcome among active, inactive

Example results:
C/C(Cl)=N\OC(=O)Nc1ccc([N+](=O)[O-])cc1
inactive
COC(=O)C1=C(O)C(C(=O)OC)C2CC(=O)CC1C2(C)C (configuration not stated)
inactive
Cc1ccccc1NC(=O)c1cc(-c2ccc([N+](=O)[O-])cc2)nc(S)n1
inactive

Inquiry: Record request — test call for O=C(OCC1CCCN2CCCCC12)c1cccnc1 (configuration not stated)
Reply text: inactive

* * *

# key: entry, value: GI50
- Test system: UACC-62
- assay.explanation: NCI tumour cell line growth inhibition, 48 h
Calls of active or inactive are those of the source. No stated cut-off is given here; in the data, active = GI50 up to about 1.1 µM and inactive = higher.

Use these answered entries as a reference point.
OC12COc3ccccc3C1Oc1ccccc1C2 (stereo not drawn)
> 100 µM (inactive)
CCC1(C(=O)OC(C)(C)C)OC12C(C)CCCC2C (stereo not drawn)
50.4 µM (inactive)
COC(=O)C1C(=O)N(C)C(=O)N2CCCC12 (stereo not drawn)
> 100 µM (inactive)
COc1cc(C[C@@H](C)N)cc(OC)c1
> 100 µM (inactive)
N/C(=N\c1cccc(Cl)c1)c1ccccc1N
> 100 µM (inactive)
COc1ccc(/N=N\c2c(N)nn3c(SC)c(C#N)c(N)nc23)cc1
5.71 µM (inactive)
COC(=O)C1=C(O)C(C(=O)OC)C2CC(=O)CC1C2(C)C (stereo not drawn)
> 100 µM (inactive)

Consider the additional molecule presented here.
Inquiry: State its GI50 on UACC-62: C/C(=C/CO[Si](C)(C)C(C)(C)C)C(=O)N(C)c1ccccc1I
Reply text: 14.8 µM (inactive)
